tested on: cancer stem cells; assay: Survival rate of cancer stem cells after test compound is added (flow cytometry, Annexin V-FITC/PI, clinical specimen); assay type: cell-based, patient; details: Homo sapiens, 18 h, Skin cancer; 10.0 μM
In this section, each of the molecules is paired with its reported viability at 10 µM.

- Smiles: "C=C1C(=O)O[C@H]2[C@H]1CCC(C)=C1CC[C@@](C)(OC(=O)CCCc3cn(CCCCCCO)nn3)[C@@H]12"
  viability at 10 µM: "56%"
- Smiles: "C=C1CC[C@H]2C(=C)CC[C@H]3C(=C)C(=O)O[C@@H]3[C@@H]12"
  viability at 10 µM: "55%"
- Smiles: "C=C1C(=O)O[C@@H]2[C@@H]3[C@@H](CC[C@@]3(C)O)C(=C)CC[C@@H]12"
  viability at 10 µM: "46%"
- Smiles: "C=C1C(=O)O[C@H]2[C@H]1CC[C@]1(C)O[C@@]13CC[C@@](C)(O)[C@H]23"
  viability at 10 µM: "46%"

API: the following record is the query input.
INPUT: Give viability at 10 µM for the following molecule: [2H][C@@]1(CN(C)C)C(=O)O[C@@H]2[C@@H]3[C@@H](CCC34CC4)C3(CC[C@H]21)CC3
OUTPUT: 85%
